pIC50: −log10 of the molar value.
This section lists pIC50 readings for PGHS 2 (Homo sapiens).

Here are 3 compounds together with their reported answers.
{"item-smiles": "CC(=O)c1ccc(-c2ccc(F)cc2)c(-c2ccc(S(C)(=O)=O)cc2)c1", "pIC50": "4.30 to 5.00"}
{"item-smiles": "CN(C)c1ccc(-c2ccccc2-c2ccc(S(C)(=O)=O)cc2)cc1", "pIC50": "4.30 to 5.00"}
{"item-smiles": "CS(=O)(=O)c1ccc(-c2ccccc2Oc2ccc(F)cc2)cc1", "pIC50": "> 5.00"}

Q) Jot down pIC50 (PGHS 2 (Homo sapiens)) of COc1cccc(-c2ccccc2-c2ccc(S(C)(=O)=O)cc2)c1 .
A) 4.30 to 5.00

Q) # lookup: PGHS 2 (Homo sapiens) pIC50, key = COc1cccc2cc(-c3ccccc3-c3ccc(S(C)(=O)=O)cc3)ccc12
Sequence (P35354 18-604, species assumed): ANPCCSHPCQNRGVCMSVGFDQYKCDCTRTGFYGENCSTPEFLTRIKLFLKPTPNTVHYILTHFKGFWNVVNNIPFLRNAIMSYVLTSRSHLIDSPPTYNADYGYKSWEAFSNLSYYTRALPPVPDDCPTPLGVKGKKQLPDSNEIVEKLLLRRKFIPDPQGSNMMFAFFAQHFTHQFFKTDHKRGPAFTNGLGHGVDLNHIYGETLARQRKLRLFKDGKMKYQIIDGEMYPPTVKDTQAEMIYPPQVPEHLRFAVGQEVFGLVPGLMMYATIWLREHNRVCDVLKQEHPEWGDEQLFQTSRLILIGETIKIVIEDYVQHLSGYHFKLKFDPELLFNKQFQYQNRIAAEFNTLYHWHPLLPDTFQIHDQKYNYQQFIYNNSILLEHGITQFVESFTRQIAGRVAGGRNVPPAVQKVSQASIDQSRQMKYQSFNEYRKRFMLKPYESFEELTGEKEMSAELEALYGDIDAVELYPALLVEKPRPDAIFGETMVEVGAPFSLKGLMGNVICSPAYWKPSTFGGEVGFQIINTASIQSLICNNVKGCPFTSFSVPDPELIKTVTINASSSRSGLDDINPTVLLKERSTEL
A) 4.30 to 5.00

Q) Provide pIC50, recorded with PGHS 2 (Homo sapiens), of NS(=O)(=O)c1ccc(-c2ccccc2-c2ccccc2)cc1
A) > 5.00

###

Measured IC50 values are reported for all entries that follow.
Test system: PGE2 production in human monocytes
test: Cellular Assay: inhibition of PGE2 production in LPS-stimulated human peripheral blood monocytes
Type: cell-based
condition-parameters: Monocyte, Table B, LPS 1 μg/ml, 17.5 hours

{"compound": "CN(C)c1ccc(-c2ccccc2-c2ccc(S(C)(=O)=O)cc2)cc1 [Example 20]", "IC50": "10 to 50 nM"}
{"compound": "CS(=O)(=O)c1ccc(-c2ccccc2-c2ccc3ccccc3c2)cc1 [Example 49]", "IC50": "51 to 100 nM"}
{"compound": "COc1cccc(-c2ccccc2-c2ccc(S(C)(=O)=O)cc2)c1 [Example 4]", "IC50": "51 to 100 nM"}
{"compound": "CS(=O)(=O)c1ccc(-c2ccccc2-c2ccc(F)cc2)cc1 [Example 2]", "IC50": "10 to 50 nM"}
{"compound": "CS(=O)(=O)c1ccc(-c2ccccc2-c2ccc(C=O)cc2)cc1 [Example 41]", "IC50": "51 to 100 nM"}

Q) Fill in: IC50 on PGE2 production in human monocytes, entry CS(=O)(=O)c1ccc(-c2ccccc2-c2cc3ccccc3s2)cc1 [Example 48]
A) 10 to 50 nM

Q) Write down the reported IC50 (system: PGE2 production in human monocytes) of CS(=O)(=O)c1ccc(-c2ccc([N+](=O)[O-])cc2-c2ccc(F)cc2)cc1 [Example 81]
A) 51 to 100 nM

Q) State the measured IC50 (PGE2 production in human monocytes) of COc1ccc(-c2ccccc2-c2ccc(S(C)(=O)=O)cc2)cc1 [Example 5]
A) 10 to 50 nM

Q) Param request: IC50 | system PGE2 production in human monocytes | item CS(=O)(=O)c1ccc(-c2ccccc2Oc2ccccc2)cc1 [Example 144]
A) 51 to 100 nM

Values compiled from patent US5593994A.
